- assayExplanation: Rat oral pharmacokinetic study
- Format: in vivo, Sprague Dawley rats
- recordedConditions: Sprague Dawley; female rat, single PO 30 mg/kg of compound 9, 5% TPGS/5% PVP-K30/50 mM Citrate pH 5, analyte 9a in plasma, mean ± SD
quantity: AUC (ng·h/mL)
Give bare numbers, in ng·h/mL.

-- ask Which AUC is listed for Cc1cc(F)ccc1Oc1cc(C(F)(F)F)ccc1C(=O)Nc1cc[nH]c(=O)c1 ?
-- reply 99200

----------
- assayExplanation: Rat oral pharmacokinetic study
- Assay type: in vivo, Sprague Dawley rats
- recordedConditions: Sprague Dawley; male rat, single PO 1000 mg/kg of compound 9, 5% TPGS/5% PVP-K30/50 mM Citrate pH 5, analyte 9a in plasma, mean ± SD
quantity: Cmax
Field: value (include unit after the number)

-- ask For Cc1cc(F)ccc1Oc1cc(C(F)(F)F)ccc1C(=O)Nc1cc[nH]c(=O)c1 [Compound 9a] , what is its reported Cmax?
-- reply 4540 ng/mL

----------
- assayExplanation: Rat oral pharmacokinetic study
- Type: in vivo, Sprague Dawley rats
- recordedConditions: Sprague Dawley; male rat, single PO 10 mg/kg of compound 9, 5% TPGS/5% PVP-K30/50 mM Citrate pH 5, analyte 9a in plasma, mean ± SD
quantity: AUC (ng·h/mL)
Answers are plain numbers, in ng·h/mL.

-- ask # AUC lookup, item Cc1cc(F)ccc1Oc1cc(C(F)(F)F)ccc1C(=O)Nc1cc[nH]c(=O)c1 [Compound 9a]
-- reply 3600

----------
- assayExplanation: Rat oral pharmacokinetic study
- Assay type: in vivo, Sprague Dawley rats
- recordedConditions: Sprague Dawley; male rat, single PO 100 mg/kg of compound 9, 5% TPGS/5% PVP-K30/50 mM Citrate pH 5, analyte 9a in plasma, mean ± SD
quantity: Tmax
Write the numeric value and follow it with the unit.

-- ask // lookup Tmax for Cc1cc(F)ccc1Oc1cc(C(F)(F)F)ccc1C(=O)Nc1cc[nH]c(=O)c1
-- reply 8 h

----------
- assayExplanation: Rat oral pharmacokinetic study
- Format: in vivo, Sprague Dawley rats
- recordedConditions: Sprague Dawley; male rat, single PO 1000 mg/kg of compound 9, 5% TPGS/5% PVP-K30/50 mM Citrate pH 5, analyte 9a in plasma, mean ± SD
quantity: Tmax (h)
One number for each entry, in h.

-- ask Which Tmax value is on record for Cc1cc(F)ccc1Oc1cc(C(F)(F)F)ccc1C(=O)Nc1cc[nH]c(=O)c1 [Compound 9a] ?
-- reply 6.67

----------
- assayExplanation: Rat oral pharmacokinetic study
- Type: in vivo, Sprague Dawley rats
- recordedConditions: Sprague Dawley; male rat, single PO 10 mg/kg of compound 9, 5% TPGS/5% PVP-K30/50 mM Citrate pH 5, analyte 9a in plasma, mean ± SD
- Experimental: Sample Analysis. […] Before extraction, plasma samples were diluted using blank plasma at an appropriate dilution factor, as necessary, depending on the dose level. […] After centrifugation, the supernatant extract (10 μL) was injected onto the LC/MS/MS system. […] The analytes were detected by MS/MS with Electrospray Ionization (ESI) in the mode of multiple reaction monitoring (MRM). […] Key pharmacokinetic parameters such as AUCall, AUCextra, Cmax, tmax, Cl, Vss and t1/2 were determined. […]
quantity: Cmax (µg/mL)
One number for each entry, in µg/mL.

-- ask Which Cmax reading was recorded for the compound Cc1cc(F)ccc1Oc1cc(C(F)(F)F)ccc1C(=O)Nc1cc[nH]c(=O)c1 ?
-- reply 0.29
